- Study Conditions: 343.15 K; 100 kPa; Liquid; Concentric cylinders viscometry
± gives the expanded uncertainty stated by the source.
Catalogue of compounds with associated viscosity
Report as: number unit

>  <Compound>
CCCCCCn1cc[n+](C)c1.N#C[B-](C#N)(C#N)C#N [1-hexyl-3-methylimidazolium tetracyanoborate]

>  <Val>
9.467 ± 0.44 mPa·s

$$$$
>  <Compound>
C=CCn1cc[n+](C)c1.O=S(=O)([N-]S(=O)(=O)C(F)(F)F)C(F)(F)F

>  <Val>
9.52 ± 0.44 mPa·s

$$$$
>  <Compound>
CCn1cc[n+](C)c1.N#C[B-](C#N)(C#N)C#N [1-ethyl-3-methylimidazolium tetracyanoborate]

>  <Val>
5.473 ± 0.25 mPa·s

$$$$

Turning now to a further compound:
Challenge: Given CCCC[N+]1(C)CCCC1.O=S(=O)([N-]S(=O)(=O)C(F)(F)F)C(F)(F)F , state its recorded viscosity.
Response given: 16.4 ± 0.76 mPa·s

* * *

- Study Conditions: 293.15 K; 100 kPa; Liquid; Vibrating tube method
± gives the expanded uncertainty stated by the source.
Quantity Kind: mass density
Report as: number unit

>  <Molecule>
CCCC[N+]1(C)CCCC1.O=S(=O)([N-]S(=O)(=O)C(F)(F)F)C(F)(F)F

>  <mass density>
1398.7 ± 3 kg/m3

$$$$
>  <Molecule>
CCn1cc[n+](C)c1.N#C[B-](C#N)(C#N)C#N [1-ethyl-3-methylimidazolium tetracyanoborate]

>  <mass density>
1040.5 ± 2.3 kg/m3

$$$$
>  <Molecule>
C=CCn1cc[n+](C)c1.O=S(=O)([N-]S(=O)(=O)C(F)(F)F)C(F)(F)F

>  <mass density>
1506.1 ± 3.3 kg/m3

$$$$

Challenge: Given CCCCCCn1cc[n+](C)c1.N#C[B-](C#N)(C#N)C#N [1-hexyl-3-methylimidazolium tetracyanoborate] , state its recorded mass density.
Response given: 994.4 ± 2.2 kg/m3

* * *

- Study Conditions: 323.15 K; 100 kPa; Liquid; Concentric cylinders viscometry
Quantity Kind: viscosity (mPa·s)
The figure you give is taken to be in mPa·s; do not add the unit.

Look over these answered cases.
>  <Compound>
C=CCn1cc[n+](C)c1.O=S(=O)([N-]S(=O)(=O)C(F)(F)F)C(F)(F)F

>  <Quantity Kind>
viscosity

>  <Measurement Units>
mPa·s

>  <Val>
15.29

$$$$
>  <Compound>
CCCCCCn1cc[n+](C)c1.N#C[B-](C#N)(C#N)C#N [1-hexyl-3-methylimidazolium tetracyanoborate]

>  <Quantity Kind>
viscosity

>  <Measurement Units>
mPa·s

>  <Val>
17.12

$$$$
>  <Compound>
CCCC[N+]1(C)CCCC1.O=S(=O)([N-]S(=O)(=O)C(F)(F)F)C(F)(F)F

>  <Quantity Kind>
viscosity

>  <Measurement Units>
mPa·s

>  <Val>
29.25

$$$$

Turning now to a further compound:
Challenge: Given CCn1cc[n+](C)c1.N#C[B-](C#N)(C#N)C#N [1-ethyl-3-methylimidazolium tetracyanoborate] , state its recorded viscosity.
Response given: 8.55

* * *

- Study Conditions: 353.15 K; 100 kPa; Liquid; Vibrating tube method
± gives the expanded uncertainty stated by the source.
Quantity Kind: mass density
Report as: number unit

Look over these answered cases.
>  <Molecule>
C=CCn1cc[n+](C)c1.O=S(=O)([N-]S(=O)(=O)C(F)(F)F)C(F)(F)F

>  <mass density>
1446.5 ± 3.3 kg/m3

$$$$
>  <Molecule>
CCCCCCn1cc[n+](C)c1.N#C[B-](C#N)(C#N)C#N [1-hexyl-3-methylimidazolium tetracyanoborate]

>  <mass density>
952.2 ± 2.2 kg/m3

$$$$
>  <Molecule>
CCn1cc[n+](C)c1.N#C[B-](C#N)(C#N)C#N [1-ethyl-3-methylimidazolium tetracyanoborate]

>  <mass density>
994.8 ± 2.3 kg/m3

$$$$

Challenge: Given CCCC[N+]1(C)CCCC1.O=S(=O)([N-]S(=O)(=O)C(F)(F)F)C(F)(F)F , state its recorded mass density.
Response given: 1347.1 ± 3 kg/m3

* * *

- Study Conditions: 373.15 K; 100 kPa; Liquid; Concentric cylinders viscometry
Quantity Kind: viscosity (mPa·s)
The figure you give is taken to be in mPa·s; do not add the unit.

Look over these answered cases.
>  <Compound>
CCn1cc[n+](C)c1.N#C[B-](C#N)(C#N)C#N [1-ethyl-3-methylimidazolium tetracyanoborate]

>  <Val>
3.289

$$$$
>  <Compound>
CCCCCCn1cc[n+](C)c1.N#C[B-](C#N)(C#N)C#N [1-hexyl-3-methylimidazolium tetracyanoborate]

>  <Val>
4.929

$$$$
>  <Compound>
CCCC[N+]1(C)CCCC1.O=S(=O)([N-]S(=O)(=O)C(F)(F)F)C(F)(F)F

>  <Val>
8.471

$$$$

Turning now to a further compound:
Challenge: Given C=CCn1cc[n+](C)c1.O=S(=O)([N-]S(=O)(=O)C(F)(F)F)C(F)(F)F , state its recorded viscosity.
Response given: 5.498

* * *

- Study Conditions: 303.15 K; 100 kPa; Liquid; Vibrating tube method
± gives the expanded uncertainty stated by the source.
Catalogue of molecules with associated mass density

>  <Molecule>
CCn1cc[n+](C)c1.N#C[B-](C#N)(C#N)C#N [1-ethyl-3-methylimidazolium tetracyanoborate]

>  <Val>
1032.7 ± 2.3 kg/m3

$$$$
>  <Molecule>
CCCC[N+]1(C)CCCC1.O=S(=O)([N-]S(=O)(=O)C(F)(F)F)C(F)(F)F

>  <Val>
1389.8 ± 3 kg/m3

$$$$
>  <Molecule>
C=CCn1cc[n+](C)c1.O=S(=O)([N-]S(=O)(=O)C(F)(F)F)C(F)(F)F

>  <Val>
1496 ± 3.3 kg/m3

$$$$

Turning now to a further molecule:
Challenge: Given CCCCCCn1cc[n+](C)c1.N#C[B-](C#N)(C#N)C#N [1-hexyl-3-methylimidazolium tetracyanoborate] , state its recorded mass density.
Response given: 987.3 ± 2.2 kg/m3

* * *

- Study Conditions: 323.15 K; 100 kPa; Liquid; Vibrating tube method
Quantity Kind: mass density (kg/m3)
The figure you give is taken to be in kg/m3; do not add the unit.

Look over these answered cases.
>  <Compound>
C=CCn1cc[n+](C)c1.O=S(=O)([N-]S(=O)(=O)C(F)(F)F)C(F)(F)F

>  <mass density, kg/m3>
1476

$$$$
>  <Compound>
CCCCCCn1cc[n+](C)c1.N#C[B-](C#N)(C#N)C#N [1-hexyl-3-methylimidazolium tetracyanoborate]

>  <mass density, kg/m3>
973

$$$$

Challenge: Given CCn1cc[n+](C)c1.N#C[B-](C#N)(C#N)C#N [1-ethyl-3-methylimidazolium tetracyanoborate] , state its recorded mass density.
Response given: 1017.2

Challenge: CCCC[N+]1(C)CCCC1.O=S(=O)([N-]S(=O)(=O)C(F)(F)F)C(F)(F)F , same question.
Response given: 1372.4

* * *

Catalogue of molecules with associated mass density
- Study Conditions: 333.15 K; 100 kPa; Liquid; Vibrating tube method
The figure you give is taken to be in kg/m3; do not add the unit.

Look over these answered cases.
>  <Molecule>
CCCC[N+]1(C)CCCC1.O=S(=O)([N-]S(=O)(=O)C(F)(F)F)C(F)(F)F

>  <mass density [kg/m3]>
1363.9

$$$$
>  <Molecule>
CCn1cc[n+](C)c1.N#C[B-](C#N)(C#N)C#N [1-ethyl-3-methylimidazolium tetracyanoborate]

>  <mass density [kg/m3]>
1009.6

$$$$

Challenge: Given CCCCCCn1cc[n+](C)c1.N#C[B-](C#N)(C#N)C#N [1-hexyl-3-methylimidazolium tetracyanoborate] , state its recorded mass density.
Response given: 966

Challenge: C=CCn1cc[n+](C)c1.O=S(=O)([N-]S(=O)(=O)C(F)(F)F)C(F)(F)F , same question.
Response given: 1466.1

* * *

- Study Conditions: 343.15 K; 100 kPa; Liquid; Vibrating tube method
Catalogue of compounds with associated mass density
The figure you give is taken to be in kg/m3; do not add the unit.

Look over these answered cases.
>  <Compound>
C=CCn1cc[n+](C)c1.O=S(=O)([N-]S(=O)(=O)C(F)(F)F)C(F)(F)F

>  <mass density (kg/m3)>
1456.3

$$$$
>  <Compound>
CCCCCCn1cc[n+](C)c1.N#C[B-](C#N)(C#N)C#N [1-hexyl-3-methylimidazolium tetracyanoborate]

>  <mass density (kg/m3)>
959.1

$$$$
>  <Compound>
CCn1cc[n+](C)c1.N#C[B-](C#N)(C#N)C#N [1-ethyl-3-methylimidazolium tetracyanoborate]

>  <mass density (kg/m3)>
1002

$$$$

Turning now to a further compound:
Challenge: Given CCCC[N+]1(C)CCCC1.O=S(=O)([N-]S(=O)(=O)C(F)(F)F)C(F)(F)F , state its recorded mass density.
Response given: 1355.5
